The following compounds are shown together with reported TGI values.
System: SK-MEL-28 melanoma
Test description: NCI tumour cell line growth inhibition, 48 h

Known results for compounds:
Compound | Parameter | Result
c1ccc(NNN2NC(c3ccccc3)C2c2ccccc2)cc1 (stereo not given) | TGI | > 100 µM
CCOC(=O)c1cc(NC(=O)N(CCC#N)CCN(C(=O)N[C@@H](Cc2ccccc2)C(=O)N[C@@H](CC(C)C)C(=O)NC)c2ccccc2)ccc1OC | TGI | > 100 µM

IN: Need TGI of Cc1noc(C)c1C1=CCCCc2ccccc21 , thanks.
OUT: > 100 µM

IN: Need TGI of COc1ccc(/C=C/C(=O)c2sc(NC(=S)NC(=O)c3ccccc3F)nc2C)cc1OC , thanks.
OUT: > 100 µM

IN: Need TGI of CC(C)=CC1CCc2ccccc2N1S(=O)(=O)c1ccc(C)cc1 (stereo not given) , thanks.
OUT: > 40.1 µM

IN: Need TGI of COc1cc(-c2cc(=O)c3c(OC)c(OC)c(OC)c(OC)c3o2)cc(OC)c1OC , thanks.
OUT: > 100 µM

IN: Need TGI of COc1ccc(/C=C2/N=C(N/N=C\C(O)C(O)C(O)C(O)CO)NC2=O)cc1 (stereo not given) , thanks.
OUT: > 100 µM

IN: Need TGI of COC(=O)c1cc2c3c(c1)Oc1cc(C(=O)OC)cc4c1C3c1c(cc(C(=O)OC)cc1O4)O2 , thanks.
OUT: > 100 µM

IN: Need TGI of COC1CC(C)(N)C(O)C(C)O1 (stereo not given) , thanks.
OUT: > 100 µM

IN: Need TGI of CC(=O)OCC1OC(n2c(-c3cccs3)c3c(c(C#N)c2=S)-c2ccccc2CC3)C(OC(C)=O)C(OC(C)=O)C1OC(C)=O (stereo not given) , thanks.
OUT: > 59.2 µM

IN: Need TGI of COC(=O)[C@]12CSCN1C(=O)C(C(C)=O)=NN2C(=O)[C@](OC)(c1ccccc1)C(F)(F)F , thanks.
OUT: > 100 µM

IN: Need TGI of O=[N+]([O-])/C(C(Cl)=C(Cl)Cl)=C(\Nc1cccc2ccccc12)Sc1ccccc1 , thanks.
OUT: 34 µM

====

The following compounds are shown together with reported TGI values.
Test system: NCI/ADR-RES ovarian
Test description: NCI tumour cell line growth inhibition, 48 h

Known results for compounds:
Compound | Study target | Parameter | Result
CN=C(NN)NS(=O)(=O)c1cc(C)c(Cl)cc1S | NCI/ADR-RES ovarian | TGI | > 100 µM
Cc1ccc(/C=C2\N=C(N3CCOCC3)NC2=O)cc1 | NCI/ADR-RES ovarian | TGI | > 100 µM
CN([O-])c1nc(N(C)[O-])nc(N2CCOCC2)n1.CN([O-])c1nc(N(C)[OH2+])nc(N2CCOCC2)n1.[Fe+3] | NCI/ADR-RES ovarian | TGI | > 100 µM
NNC1=N/C(=C\c2ccccc2O)C(=O)N1 | NCI/ADR-RES ovarian | TGI | > 100 µM
CCCCCCNC(=O)Nc1ccc2cc3ccc(NC(=O)NCCCCCC)cc3nc2c1 | NCI/ADR-RES ovarian | TGI | > 100 µM

Continue with the compound presented below.
IN: Lab request: please report TGI under test system NCI/ADR-RES ovarian for CC(=O)OCC1OC(n2c(-c3cccs3)c3c(c(C#N)c2=S)-c2ccccc2CC3)C(OC(C)=O)C(OC(C)=O)C1OC(C)=O (stereo not given)
OUT: > 70.8 µM
